Answer each item with its documented Sirt6 Activity (% activity, 10 μM).
Biological target: Sirt6 (Homo sapiens)
Construct: purchased CycLex CY-1156V2
Sequence (Q8N6T7 whole entry): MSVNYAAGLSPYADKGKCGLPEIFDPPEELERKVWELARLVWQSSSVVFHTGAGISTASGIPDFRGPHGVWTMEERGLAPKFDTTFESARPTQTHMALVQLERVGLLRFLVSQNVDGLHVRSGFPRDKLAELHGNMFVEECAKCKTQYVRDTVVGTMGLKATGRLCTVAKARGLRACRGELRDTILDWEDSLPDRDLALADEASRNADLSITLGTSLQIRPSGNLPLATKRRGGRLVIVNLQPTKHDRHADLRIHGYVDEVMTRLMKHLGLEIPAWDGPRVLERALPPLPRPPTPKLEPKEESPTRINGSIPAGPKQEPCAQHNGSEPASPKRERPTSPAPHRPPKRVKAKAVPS
Experiment: Measurement of Sirt6 Activity (CycLex Sirt6 Deacetylase Fluorometric Assay Kit)
Format: biochemical
Conditions: compound at 10 μM; fluorescence relative to the group without compound treatment (positive control group)
Method: LC-MS (ESI, m/z)=430.1 (M+H^+) Experimental Example 1: Measurement of Sirt6 Activity Compounds having Sirt6 activity were selected using a CycLex Sirt6 Deacetylase Fluorometric Assay Kit (cat. CY-1156V2) manufactured by CycLex. When a fluorescent-attached acetylated lysine substrate is treated with Sirt6 enzyme, Sirt6 deacetylates the acetylated lysine of the substrate and lysylendopeptidase cleaves the C-terminal peptide bond connected to the lysine, by which fluorescence is emitted. […]
Answers are plain numbers, in % activity.

# molecule, Sirt6 Activity (% activity, 10 μM) (% activity)
records = [
    ("CC/[N+]([O-])=C/c1cccc(-c2nn(-c3ccc(F)cc3)c(=O)c3ccccc23)c1", 221),
    ("Cl.NC1CCCCN(c2nn(-c3ccc(F)cc3)c(=O)c3ccccc23)C1 (stereo not shown)", 184.3),
    ("CC(C)/[N+]([O-])=C/c1cc(-c2nn(-c3ccc(F)cc3)c(=O)c3ccccc23)ccc1F", 172),
]

I need Sirt6 Activity (% activity, 10 μM) for every entry listed below, if you could help.
1. CC(C)/[N+]([O-])=C/c1cccc(-c2nn(-c3cc(F)cc(F)c3)c(=O)c3ccccc23)c1
2. Cc1nc(C(C)(C)c2cccc(-c3nn(-c4ccc(F)cc4F)c(=O)c4ccccc34)c2)no1
3. O=c1c2ccccc2c(-c2cccc(-c3nnn[nH]3)c2)nn1-c1ccc(F)cc1
4. CC(C)(C(=O)Nc1ccccc1)c1cccc(-c2nn(-c3ccc(F)cc3F)c(=O)c3ccccc23)c1
5. CCS(=O)(=O)NC1CCCN(c2nn(-c3ccc(F)cc3)c(=O)c3ccccc23)C1 (stereo not shown)
6. CS(=O)(=O)Nc1cccc(-c2nn(-c3ccc(F)cc3)c(=O)c3ccccc23)c1
7. COc1ccc(-n2nc(-c3cccc(/C=[N+](\[O-])C(C)C)c3)c3ccccc3c2=O)cc1

Solution:
171
114.2
115
122.10
174.93
198
124

I need Sirt6 Activity (% activity, 10 μM) for every entry listed below, if you could help.
1. Cl.N[C@@H]1CCCCN(c2nn(-c3ccc(F)cc3)c(=O)c3ccccc23)C1
2. CC(C)(C#N)c1cccc(-c2nn(-c3ccc(F)cc3F)c(=O)c3ccccc23)c1
3. C/[N+]([O-])=C/c1ccc(F)c(-c2nn(-c3ccc(F)cc3)c(=O)c3ccccc23)c1

Solution:
205.5
155.7
151
